# System: SK-OV-3 ovarian
# protocolText: NCI tumour cell line growth inhibition, 48 h
Where a SMILES comes first, the peptide text is derived from it. [ ]: non-standard residue; d: D form. The star is where a group is joined. Phe(4-NO2) = N[CH](Cc1ccc([N+](=O)[O-])cc1)C(=O)O; Boc = CC(C)(C)OC(=O)*
Entries annotated with measured TGI

Please review the entries below; each comes with its answer.
INSERT INTO measurements (compound, observedmeasurement) VALUES
  ('COc1cc(/C=c2\sc3n(c2=O)C(c2ccc(Cl)cc2)C2=C(CCCC2C)N=3)cc(OC)c1OC (configuration not stated)', '> 100 µM'),
  ('C=CCC1C(=O)CC2(C)CC(=O)C(CC=C)C12C (configuration not stated)', '> 100 µM'),
  ('Cc1ccc(S(=O)(=O)NNCNC(=O)c2ccccc2)cc1', '> 100 µM'),
  ('O=C(OC[C@H]1O[C@H](OC(=O)c2cc(O)c(O)c(OC(=O)c3cc(O)c(O)c(O)c3)c2)[C@H](OC(=O)c2cc(O)c(O)c(OC(=O)c3cc(O)c(O)c(O)c3)c2)[C@@H](OC(=O)c2cc(O)c(O)c(OC(=O)c3cc(O)c(O)c(O)c3)c2)[C@@H]1OC(=O)c1cc(O)c(O)c(OC(=O)c2cc(O)c(O)c(O)c2)c1)c1cc(O)c(O)c(OC(=O)c2cc(O)c(O)c(O)c2)c1', '> 25 µM');

Qu. Recorded TGI for O=C1C(=Cc2c(O)cc(O)cc2O)C(=O)c2ccccc21 , please?
Ans. > 100 µM

Qu. Recorded TGI for C[N+]1=C(/C=C\C=C\c2ccccc2)C(C)(C)c2ccccc21 , please?
Ans. 23.9 µM

Qu. Recorded TGI for CC(=O)OCC1OC(n2c(-c3ccc(C)cc3)cc(-c3ccccc3)c(C#N)c2=O)C(OC(C)=O)C(OC(C)=O)C1OC(C)=O (configuration not stated) , please?
Ans. > 100 µM

Qu. Recorded TGI for O=C1C(=O)c2cccnc2-c2ncccc21 , please?
Ans. 2.98 µM

Qu. Recorded TGI for O=C(NNC(=S)NC1CCCCC1)c1csc(NC(=S)NC2CCCCC2)n1 , please?
Ans. 28.6 µM

Qu. Recorded TGI for COC(=O)C(CCSC)NC(=O)Cc1ccc(C(=O)c2ccccc2)cc1 (configuration not stated) , please?
Ans. > 100 µM

Qu. Recorded TGI for CNC(=O)CCC(NC(=O)OC(C)(C)C)C(=O)NC(Cc1ccc([N+](=O)[O-])cc1)C(=O)NCC(=O)NC (configuration not stated) (Boc-Glu(NHMe)-[Phe(4-NO2)]-Gly-NHMe; configuration not given here) , please?
Ans. > 100 µM

Qu. Recorded TGI for COC(=O)c1c2cccccc-2c(Cc2c3cccccc-3c(C(=O)OC)c2O)c1O , please?
Ans. > 100 µM

Qu. Recorded TGI for C=C(C)[C@@H]1CCC2=C[C@H](OC2=O)[C@@]2(C)C[C@@H]2C2=CC(C)=C(O2)[C@H]1O , please?
Ans. > 75 µM

Qu. Recorded TGI for CC(C)/C(Cl)=N\OC(=O)Nc1cccc(Cl)c1 , please?
Ans. > 58.2 µM

Qu. Recorded TGI for CN(C)CC/[N+]([O-])=C(/c1ccccc1)C12CC3CC(CC(C3)C1)C2 , please?
Ans. 31.4 µM

Qu. Recorded TGI for CCN(CC)c1ccc(N=Nc2ccc(-c3nc4ccc[n+](C)c4o3)cc2)cc1 , please?
Ans. 34.1 µM

Qu. Recorded TGI for CCOC(=O)c1ccc(NCC#CCN2CCCCC2)cc1 , please?
Ans. > 100 µM
